# Tested on: SF-539 CNS
# Protocol notes: NCI-60 one-dose screen, 48 h (100 = growth as untreated, 0 = no growth, -100 = all killed)
# Run conditions: 10 µM
This is part of a sample that, as a whole, favours compounds with a hit. Of some 83,000 tested, about 20% had one in any assay.
Here, each record is paired with measured growth data.
Measured endpoint: growth (%)

compound=COC(=O)C[C@](O)(CCC(C)C)C(=O)O[C@@H]1C(OC)=C[C@]23CCCN2CCc2cc4c(cc2[C@H]13)OCO4 observed_value=-77.1
compound=CC12CCC3(CCC(=O)NCCCNc4ccnc5cc(Cl)ccc45)[C@@](C)(OO[C@]3(C)O1)O2 observed_value=-65.6
compound=COc1ccc(OC)c(/C=C/C(=O)c2nc3ccccc3n2Cc2ccc(F)cc2)c1 observed_value=-80.4
compound=CC(=O)Oc1ccccc1C(=O)[Se]C(=NC(C)C)NC(C)C observed_value=-98
compound=CC1=C(COCCOC(=O)c2ccc(S(=O)(=O)F)cc2)C2=C(C)C3(CC3)[C@@](C)(O)C(=O)C2=C1 observed_value=-76.2
compound="O=C([Se]C1C=CCCC1)c1ccc(C(=O)[Se]C2C=CCCC2)s1 (configuration not stated)" observed_value=-100
compound=COP(=O)(CC(F)(F)C(F)(F)F)OC observed_value=4.99
compound=C[C@H]1[C@H](OC(=O)CCC(=O)N(CCCc2cn(-c3ccc(C#N)cc3)nn2)CCNc2ccnc3cc(Cl)ccc23)O[C@@H]2OC3(C)CC[C@H]4[C@H](C)CC[C@@H]1[C@@]24OO3 observed_value=44.5
compound=O=C(/C=C/c1ccccc1)c1nc2ccccc2n1Cc1ccc(Br)cc1 observed_value=-93.4
compound=O=C(/C=C/c1ccc(Cl)cc1)c1nc2ccccc2n1Cc1ccc(Br)cc1 observed_value=43.8
compound=CC(C)C[C@H](NC(=O)CNC(=O)C[C@H]1O[C@@H]2OC3(C)CC[C@H]4[C@H](C)CC[C@@H]([C@H]1C)[C@@]24OO3)B(O)O observed_value=-93.3
compound=CN(C)CCc1cn(C2CCC2)c2cccc(O)c12 observed_value=61.9
compound=C#CCCCN(CCNc1ccnc2cc(Cl)ccc12)C(=O)CCC(=O)O[C@@H]1O[C@@H]2OC3(C)CC[C@H]4[C@H](C)CC[C@@H]([C@H]1C)[C@@]24OO3 observed_value=39.2
compound=Cc1ccc2[nH]c(=S)n(-c3ccc(F)cc3)c(=O)c2c1 observed_value=94.8
compound=COc1cc(OC)c(S(=O)(=O)N(CCCl)CCCl)cc1C(=O)/C=C/c1cc(OC)c(OC)c(OC)c1 observed_value=-74.1
compound=CC[C@@]12CC(C(=O)OC)=C3Nc4cc5c(cc4[C@@]34CCN(C[C@H]3O[C@H]31)[C@@H]24)[C@@H]1[C@H](O5)[C@@H](O)[C@@]2(CC)CC(C(=O)OC)=C3Nc4cc(OC)ccc4[C@@]34CCN1[C@@H]24 observed_value=21.7
compound="CCOP(=O)(OCC)C(NC(C)=O)C(=O)SCCN (configuration not stated)" observed_value=97.5

###

# System: HT29 colon
# Protocol notes: NCI-60 one-dose screen, 48 h
# Run conditions: 10 µM
# Protocol: Growth inhibition of the HT29 human tumor cell line is measured as a screen for anti-cancer activity. Cells are grown in 96 well plates and exposed to the test compound for 48 hours. Compounds are tested at a single concentration, which is 10^-5 M for most compounds. The reported endpoint is percent growth (GI% or GIPRCNT), where numbers from 0 - 100% represent growth inhibition, and numbers from -100% - 0 represent cell death. For example, a value of 40 represents 60% growth inhibition. […]
Compounds without any hit were thinned out: in the full panel of roughly 83,000, 20% have a hit. The source made the active and inactive calls. Rule for the calls: active = growth percent below 10; inactive = the rest.
Outcomes: active, inactive

compound=COCCOCCOCCOc1ccc(-n2cc(CCCN(CCNc3ccnc4cc(Cl)ccc34)C(=O)CCC(=O)O[C@@H]3O[C@@H]4OC5(C)CC[C@H]6[C@H](C)CC[C@@H]([C@H]3C)[C@@]46OO5)nn2)cc1 classification=inactive
compound=COCCOCCOCCOc1ccc(-n2cc(-c3ccc(O[C@H]4O[C@@H]5OC6(C)CC[C@H]7[C@H](C)CC[C@@H]([C@H]4C)[C@@]57OO6)cc3)nn2)cc1 classification=inactive
compound=C=CCN=C([Se])NC(=O)c1ccc2c(c1)OCO2 classification=inactive
compound=CN(C)CCc1cn(C2CCC2)c2cccc(O)c12 classification=inactive
compound="CCOC(=O)C1=C(Nc2ccccc2)C(=O)OC12C(=O)Nc1ccccc12 (configuration not stated)" classification=inactive
compound=CC(=O)Oc1ccccc1C(=O)[Se]C(=NC(C)C)NC(C)C classification=active
compound=O=C(/C=C/c1ccc(Cl)cc1Cl)c1nc2ccccc2n1Cc1ccc(F)cc1 classification=active
compound=CC(=O)Oc1ccccc1C(=O)NC([Se])=NC1CCCCC1 classification=inactive
compound=C=CC[Se]C(=O)c1ccc(C(=O)[Se]CC=C)s1 classification=active
compound=COc1cc2cc(C(=O)N3C[C@@H](CCl)c4c3cc(OC(=O)N3CCN(C(=O)CCC(=O)N5CCN(C)CC5)[C@@H]5CSSC[C@@H]53)c3ccccc43)[nH]c2c(OC)c1OC classification=active
compound=CC[C@]12C=CCN3CC[C@@]4(c5ccc(OC)cc5N(C)[C@H]4[C@@](O)(C(=O)OC)[C@@H]1OC(=O)CCC[P+](c1ccc(F)cc1)(c1ccc(F)cc1)c1ccc(F)cc1)[C@@H]32 classification=inactive
compound=COc1cc(OC)c(S(=O)(=O)N(CCCl)CCCl)cc1C(=O)/C=C/c1cc(OC)c(OC)c(OC)c1 classification=active
compound=COc1cc2cc(C(=O)N3C[C@@H](CCl)c4c3cc(OC(=O)N3CCN(C)[C@@H]5CSSC[C@H]53)c3ccccc43)[nH]c2c(OC)c1OC classification=active
compound=O=C(/C=C/c1cccc(Br)c1)c1nc2ccccc2n1Cc1ccc(F)cc1 classification=active
compound=O=C(/C=C/c1ccco1)c1nc2ccccc2n1Cc1ccc(Br)cc1 classification=inactive
compound=O=C(/C=C/c1ccc(F)cc1)c1nc2ccccc2n1Cc1ccc(F)cc1 classification=active
compound=CC(C)N=C([Se])NC(=O)c1ccccc1 classification=inactive
compound=CC[C@]12C=CCN3CC[C@@]4(c5ccc(OC)cc5N(C)[C@H]4[C@@](O)(C(=O)OC)[C@@H]1OC(=O)CCCC[P+](C1CCCCC1)(C1CCCCC1)C1CCCCC1)[C@@H]32 classification=active
compound=O=C(NC([Se])=NC1CCCCC1)c1ccc2c(c1)OCO2 classification=inactive
compound=C=CC[Se]C(=O)c1cncc(C(=O)[Se]CC=C)c1 classification=active
compound="CC12OOC(C)(OO1)C2CCC(=O)NCCCNc1ccnc2cc(Cl)ccc12 (configuration not stated)" classification=inactive
compound=C#CC[Se]C(=O)c1ccc(C(=O)[Se]CC#C)s1 classification=inactive
compound=CC[C@]12C=CCN3CC[C@@]4(c5ccc(OC)cc5N(C)[C@H]4[C@@](O)(C(=O)OC)[C@@H]1OC(=O)CCC[P+](c1ccc(C)cc1)(c1ccc(C)cc1)c1ccc(C)cc1)[C@@H]32 classification=active
compound=O=C(NC([Se])=NC1CCCCC1)c1ccccc1 classification=inactive
compound=COP(=O)(CC(F)(F)C(F)(F)F)OC classification=active
compound=O=C(/C=C/c1ccc(F)cc1)c1nc2ccccc2n1Cc1ccc(Br)cc1 classification=active
compound=CC1=C(C=O)C2=C(C)C3(CC3)[C@@](C)(O)C(=O)C2=C1 classification=inactive
compound=CCC[Se]C(=O)c1ccc(C(=O)[Se]CCC)s1 classification=active
compound=C[C@H]1[C@H](OC(=O)CCC(=O)N(CCCc2cn(-c3ccc(CN4CCOCC4)cc3)nn2)CCNc2ccnc3cc(Cl)ccc23)O[C@@H]2OC3(C)CC[C@H]4[C@H](C)CC[C@@H]1[C@@]24OO3 classification=active
compound=COC(=O)c1ccc(-n2cc(CCCN(CCNc3ccnc4cc(Cl)ccc34)C(=O)CCC(=O)O[C@@H]3O[C@@H]4OC5(C)CC[C@H]6[C@H](C)CC[C@@H]([C@H]3C)[C@@]46OO5)nn2)cc1 classification=active
compound="Cc1c2oc3c(C)ccc(C(=O)N[C@@H]4C(=O)N[C@H](C(C)C)C(=O)N5CCC[C@H]5C(=O)N(C)CC(=O)N(C)[C@@H](C(C)C)C(=O)OC4C)c3nc-2c(C(=O)N[C@@H]2C(=O)N[C@H](C(C)C)C(=O)N3CC(=O)C[C@H]3C(=O)N(C)CC(=O)N(C)[C@@H](C(C)C)C(=O)OC2C)c(N)c1=O (some centres not stated)" classification=active
compound=CC1=C(CCC=NNC(N)=O)C2=C(C)C3(CC3)[C@@](C)(O)C(=O)C2=C1 classification=active
